- System: dengue virus type 2
- assay: Antiviral activity against Dengue virus 2 New Guinea assessed as inhibition of virus induced cytopathic effect by neutral red dye uptake assay
- Type: functional, organism-based
Assign pEC50 to each entry below.
On this scale, pEC50 is minus log10 of a concentration expressed in M (mol/L).

Tell us which pEC50 value is on record for "C[C@@]1(O)[C@H](O)[C@@H](CO)O[C@H]1n1cnc2c(=O)[nH]c(N)nc21"
4.87

State its pEC50: "C[C@@]1(O)[C@H](O)[C@@H](CO)O[C@H]1n1cnc2c(N)ncnc21"
5.40

###

I'd appreciate it if you could supply CC50 at 72 h values for the items below.
- assay: Cytotoxicity against African green monkey Vero cells assessed as decrease in cell viability after 72 hrs by neutral red dye uptake assay
- Assay type: cell-based
- conditionNotes: chlorocebus sabaeus

Report CC50 at 72 h, nothing else, for this compound: "C[C@@]1(O)[C@H](O)[C@@H](CO)O[C@H]1n1cnc2c(=O)[nH]c(N)nc21"
> 200 µM

Provide only the value of recorded CC50 at 72 h for "C[C@@]1(O)[C@H](O)[C@@H](COP(=O)(O)NCCc2c[nH]c3ccccc23)O[C@H]1n1cnc2c(=O)[nH]c(N)nc21"
> 200 µM

Read off the recorded CC50 at 72 h for CSCCOP(=O)(NCCc1c[nH]c2ccccc12)OC[C@H]1O[C@@H](n2cnc3c(=O)[nH]c(N)nc32)[C@](C)(O)[C@@H]1O (stereo partly drawn)
> 200 µM
